# EC50 listing for each entry below
Target: Ec FimHLD
Test: ELISA
Please give a number only; it is taken to be in mg/L.

Consider the worked cases shown below.
Kp1 1B03 (antibody, V domains shown) VH: EVQLQQSGAELVKPGASVKLSCKASGYTFTSYWMHWVQQRPGQGLEWIGLIHPIGGGTHYNEKFKNKATLTVDKSSSTAYMQLSSLTSEDSAVYYCARLGTGPYYFDYWGQGTTLTVSS VL: QIVLTQSPALMAASPGEKVTITCSVSSSISSSTLDWYQQKSETSPKPWVYGTSNLASGVPVRFSGSGSGTSYSLTISSMEAEDAATYYCQQWSSYPWTFGGGTKLEIKR ... 0.0092
2G04 (antibody, V domains shown) VH: EVQLQQPGPELVKPGSSLKISCKASGYTFTDYFINWVKQRPGQGLDWIGWIFPGSGSTYYNDKFKGKATLTVDKSSSTAYMLLSSLTSEASAVYFCARWDSDSTYWYFDVWGTGTTVTVSS VL: QIVLTQSPALMAASPGEKVTITCSVNSSISSSTLHWYQQKSQTSPKPWIYGTSNLASGVPIRFSGSGSGTSYSLTISSMEAEDAATYYCQQWSTYPYTFGGGTKLEIKR ... 0.0115
Kp 1A09 (antibody, V domains shown) VH: EVQLQQPGAELVKPGASVKLSCKASGYTFTSYWMHWVKQRPGQGLEWIGLIHPNSGSTYYNEKFKNKATLTVDKSSSTAYMQLSSLTSEDSAVYYCARWDDSYWYFKVWGTGTTVTVSS VL: QIVLTQSPAILSASPGEKVTMTCRASSSVSYMHWYQQKPGSSPKPWIYATSNLASGVPARFSGSGSGTSYSLTISRVEAEDAATYYCQQWSSNPYTFGGGTKLEIKR ... 0.0135

Form field EC50, entry Kp2 2C07 (antibody, V domains shown) VH: EVKLVESGEGLVKPGGSLKLSCAASGFTFSSYAMSWVRQTPEKRLDWVAYISSGGDHIYYADTVKGRFTISRDNARNTLYLQMSSLKSEDTAMYYCTRDTGYYVSRYFDVWGTGTTVTVSS VL: DIVMTQSQKFMSTSVGDRVSVTCKASQNVVTNVAWYQQKSGQSPKVVIYSASFRSSGVPDRFTGSGSGTDFTLTISNVQSEDLAEYFCHQYNSHPLTFGGGTKLEIKR : 0.013

Data point: Kp 1C01 (antibody, V domains shown) VH: EVQLQQPGPVLVKPGPSVKISCKASGFTFTDYYMHWVKQSHGKSLEWIGLVSPYNGGTFYNQKFKGKATLTVDTSSSTAYMELNSLTSEDSAVYYCARVGNSYVHYAMDYWGQGTSVTVSS VL: QIVLTQSPALMAASPGEKVTITCSVSSSISSSNLHWYQQKSETSPKPWIYGTSNLASGVPVRFSGSGSGTSYSLTISSMEAEDAATYYCQQWSNYPYTFGGGTKLEIKR ; EC50 = 0.0146

Briefly, EC50 measured for Ec E7 (antibody, V domains shown) VH: EVQLQQSGAELVKPGASVKVSCKASGYSFTNYWVHWVKQRPGQGLEWIGRIYSSDGDSNYNQKFKGKATLTVDKSSSTAYMQLSSLTSEDSAVYYCAIEGNLYFDYWGQGTTLTVSS VL: DIVLTQSPASLAVSLGQRATISCRASQSVSTSSYSYMHWYQQKPGQPPKFLIKYASNLESGVPARFSGSGSGTDFTLNIHPVEEEDTATYYCQHSWEIPLTFGAGTKLKLKR : 0.0266

// recorded EC50 for Kp 2E08 (antibody, V domains shown) VH: EVQLQQPGAELAKPGASVKLSCKASGYNFTSYWMHWVKQRPGQGLEWIGLIHPNSGGTYYNEKFKSKATLTLDRSSSTAYMQLSSLTSEDSAVYYCARFEEEWGGYWYFDVWGTGTTVTVSS VL: QIVLTQSPALMAASPGEKVTITCSVSSSISSSNLHWYQQKSETSPKPWIYGTSNLASGVPVRFSGSGSGTSYSLTISSMEAEDAATYYCQQWSSYPYTFGGGTKLEIKR : 0.0092
